Recorded values, source patent US20060045953A1.

The compounds listed here are annotated with their log10 of EC50.
- experimental system: hT1R2/hT1R3 sweet receptor (Homo sapiens, UniProt Q7RTX0+Q8TE23)
- Construct: expressed in transfected cells; host or cells: HEK293 derivative stably expressing Gα15, clone S-9
- Sequence (Q8TE23 20-839): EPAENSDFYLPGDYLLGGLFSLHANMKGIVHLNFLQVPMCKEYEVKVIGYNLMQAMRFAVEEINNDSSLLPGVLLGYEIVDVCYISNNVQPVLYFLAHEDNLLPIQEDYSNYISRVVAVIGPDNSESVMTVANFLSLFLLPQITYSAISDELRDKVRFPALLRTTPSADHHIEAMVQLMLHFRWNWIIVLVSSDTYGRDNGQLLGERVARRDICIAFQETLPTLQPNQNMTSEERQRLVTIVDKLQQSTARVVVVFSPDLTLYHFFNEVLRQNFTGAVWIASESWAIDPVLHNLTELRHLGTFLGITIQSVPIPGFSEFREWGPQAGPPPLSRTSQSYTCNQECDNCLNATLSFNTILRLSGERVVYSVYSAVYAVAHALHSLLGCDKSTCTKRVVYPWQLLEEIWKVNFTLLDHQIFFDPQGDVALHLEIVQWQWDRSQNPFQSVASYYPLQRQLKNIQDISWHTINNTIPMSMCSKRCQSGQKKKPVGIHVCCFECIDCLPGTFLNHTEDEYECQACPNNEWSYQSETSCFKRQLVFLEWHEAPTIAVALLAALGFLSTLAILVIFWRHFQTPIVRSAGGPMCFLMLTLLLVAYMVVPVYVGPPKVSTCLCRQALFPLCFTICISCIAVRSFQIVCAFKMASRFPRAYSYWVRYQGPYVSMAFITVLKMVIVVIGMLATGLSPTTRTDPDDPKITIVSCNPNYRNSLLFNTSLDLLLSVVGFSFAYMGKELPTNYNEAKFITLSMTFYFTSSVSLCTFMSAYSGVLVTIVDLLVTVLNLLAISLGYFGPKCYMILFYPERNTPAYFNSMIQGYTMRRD
- Sequence (Q7RTX0 21-852): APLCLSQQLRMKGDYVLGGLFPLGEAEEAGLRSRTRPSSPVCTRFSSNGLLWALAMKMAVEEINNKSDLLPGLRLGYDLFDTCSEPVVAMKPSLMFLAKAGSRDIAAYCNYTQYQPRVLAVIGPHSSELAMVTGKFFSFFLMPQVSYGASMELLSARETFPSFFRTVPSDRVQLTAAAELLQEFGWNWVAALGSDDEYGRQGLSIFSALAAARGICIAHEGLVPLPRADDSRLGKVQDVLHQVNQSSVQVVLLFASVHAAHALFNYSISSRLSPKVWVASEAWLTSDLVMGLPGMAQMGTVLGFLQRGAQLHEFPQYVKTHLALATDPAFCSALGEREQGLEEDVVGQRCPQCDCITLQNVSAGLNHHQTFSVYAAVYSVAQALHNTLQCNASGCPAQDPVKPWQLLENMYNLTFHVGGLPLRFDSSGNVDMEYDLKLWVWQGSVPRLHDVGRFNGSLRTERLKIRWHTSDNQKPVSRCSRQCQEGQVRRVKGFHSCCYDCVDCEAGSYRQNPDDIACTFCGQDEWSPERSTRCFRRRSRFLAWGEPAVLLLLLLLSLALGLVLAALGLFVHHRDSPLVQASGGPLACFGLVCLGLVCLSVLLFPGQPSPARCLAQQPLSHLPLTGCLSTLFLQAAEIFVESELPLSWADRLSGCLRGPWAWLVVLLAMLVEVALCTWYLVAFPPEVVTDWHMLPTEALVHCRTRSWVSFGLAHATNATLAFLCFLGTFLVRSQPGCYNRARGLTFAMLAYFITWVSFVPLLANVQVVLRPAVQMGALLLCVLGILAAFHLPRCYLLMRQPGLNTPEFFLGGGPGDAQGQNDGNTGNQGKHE
- assay: In vitro hT1R2/hT1R3 sweet taste receptor activation assay (FLIPR, dose response)
- Format: cell-based
- cond: Table E, Sweet Enhancer Amides; read-out: Sweet EC50
Note: values are log10 of EC50 expressed in µM.

Solved cases below.
1. CC1CCCC(NC(=O)c2cc(F)ccc2F)C1C (centres unmarked) [Example E77]; 0.61
2. CC1CCCC(NC(=O)c2ccnc(Cl)c2)C1C (centres unmarked) [Example E44]; 0.03
3. O=C(N[C@@H]1CCCc2ccccc21)c1cccc(F)c1 [Example E23]; 0.69
4. Cc1c(Cl)cccc1C(=O)NC1CCCCC1C (centres unmarked) [Example E80]; 0.63
5. CC(C)(C)c1csc(NC(=O)c2ccncc2)n1 [Example E96]; 0.57

Problem: Reported log10 of EC50 for hT1R2/hT1R3 sweet receptor (Homo sapiens, UniProt Q7RTX0+Q8TE23), given O=C(NC1CCCc2ccccc21)c1cccc(Cl)c1O (centres unmarked) [Example E7] ?
Result: 0.26

Problem: # get_value(readout= log10 of EC50, system= hT1R2/hT1R3 sweet receptor (Homo sapiens, UniProt Q7RTX0+Q8TE23)) for CSc1nc(C)c(C(=O)Nc2ccccc2)c(C)c1C#N [Example E95]
Result: 0.55

Problem: Fill in the recorded log10 of EC50 for this compound, with hT1R2/hT1R3 sweet receptor (Homo sapiens, UniProt Q7RTX0+Q8TE23) as test system: CC1CCc2ccccc2C1NC(=O)c1ccccc1O (centres unmarked) [Example E9]
Result: 0.37

Problem: Record lookup: for hT1R2/hT1R3 sweet receptor (Homo sapiens, UniProt Q7RTX0+Q8TE23), what log10 of EC50 belongs to Cc1cccc(NC(=O)N2CCc3ccccc32)c1C [Example E120] ?
Result: 0.38

Problem: Fill in the recorded log10 of EC50 for this compound, with hT1R2/hT1R3 sweet receptor (Homo sapiens, UniProt Q7RTX0+Q8TE23) as test system: O=C(N[C@@H]1CCCc2ccccc21)c1cccc(Cl)c1 [Example E22]
Result: 0.66

Problem: Provide the documented log10 of EC50 with hT1R2/hT1R3 sweet receptor (Homo sapiens, UniProt Q7RTX0+Q8TE23) as the system for Cc1cc(C)c(C(=O)NC2CCCC(C)C2C)c(C)c1 (centres unmarked) [Example E50]
Result: 0.15

Problem: Which log10 of EC50 is reported with hT1R2/hT1R3 sweet receptor (Homo sapiens, UniProt Q7RTX0+Q8TE23) for this entry: CC1CCCCC1NC(=O)c1cccc(C(F)(F)F)c1F (centres unmarked) [Example E61] ?
Result: 0.38

Problem: So what log10 of EC50 did Cc1c(F)c(F)c(C(=O)N[C@H](C)C(C)C)c(F)c1F [Example E47] get with hT1R2/hT1R3 sweet receptor (Homo sapiens, UniProt Q7RTX0+Q8TE23)?
Result: 0.10
